Test system: HOP-62
Experiment: NCI tumour cell line growth inhibition, 48 h
Activity calls are given as the source filed them. No stated cut-off is given here; in the data, active = GI50 up to about 1.1 µM and inactive = higher.
Classes used: active, inactive

1. O=C1NN=C(c2ccc(Cl)cc2)CC1C1C(=O)N(c2ccccc2)N=C1c1ccccc1 (stereo not given): inactive
2. CSCCCN(CCCSC)CCCSC: inactive
3. O=C(/C=C1/NC(=O)CS1)Nc1ccccc1: inactive
4. C=C(C(=O)OCC)C(=O)OCC: inactive
5. C/C(=N/NC(=S)Nc1ccc(C)cc1)c1ccccn1: active
6. CC(C)(C)OC(=O)N1CCCC1C(=O)NCCNc1ccc(NCCNC(=O)C2CCCN2C(=O)OC(C)(C)C)c2c1C(=O)c1ccccc1C2=O (stereo not given): inactive
7. COc1cccc(C(=O)N[C@@H]2[C@H](O)[C@@H](CO)O[C@H]2n2cnc3c(N)ncnc32)c1: inactive
8. CCOC(=O)Oc1ccc(C(CNC(C)C)OC(=O)OCC)cc1OC(=O)OCC (stereo not given): inactive
9. CCC(C)NC(=S)N/N=C(\C)c1nc2cccnc2[nH]1 (stereo not given): inactive
10. CC(=O)N1CC[N+](C)(CCCCN2c3ccccc3Sc3cc(N=[N+]=[N-])ccc32)CC1: inactive
